assayed.system: EML4-ALK-BaF3 (Homo sapiens)
Construct: expressed in transfected cells; host or cells: Ba/F3 cells; the other entry of the earlier key: EML4 (Q9HC35, Echinoderm microtubule-associated protein-like 4)
Sequence (Q9UM73 1058-1620 limits assumed): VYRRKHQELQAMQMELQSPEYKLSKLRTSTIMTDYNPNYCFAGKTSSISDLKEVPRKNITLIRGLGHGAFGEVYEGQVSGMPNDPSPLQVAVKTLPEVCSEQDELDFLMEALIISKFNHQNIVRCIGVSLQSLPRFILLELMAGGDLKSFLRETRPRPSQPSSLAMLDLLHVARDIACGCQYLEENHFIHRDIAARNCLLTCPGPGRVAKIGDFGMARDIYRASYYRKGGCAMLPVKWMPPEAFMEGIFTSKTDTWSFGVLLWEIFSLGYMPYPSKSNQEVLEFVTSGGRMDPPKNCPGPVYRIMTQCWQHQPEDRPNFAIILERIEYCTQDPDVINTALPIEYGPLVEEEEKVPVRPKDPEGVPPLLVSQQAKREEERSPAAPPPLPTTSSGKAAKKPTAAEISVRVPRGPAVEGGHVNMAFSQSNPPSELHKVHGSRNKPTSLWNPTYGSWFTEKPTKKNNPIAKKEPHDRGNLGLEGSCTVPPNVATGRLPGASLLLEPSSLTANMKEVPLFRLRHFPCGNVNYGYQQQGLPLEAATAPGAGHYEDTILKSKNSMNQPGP
procedure.details: Growth inhibition of EML4-ALK transformed BaF3 cells (MTS)
Type: cell-based
cond: EML4-ALK-BaF3 cells, 48 hours, MTS; Table 12
property.measured: IC50

compound="Cn1ccc2nc(Nc3ccc(S(N)(=O)=O)cc3)nc(NCc3ccccc3S(C)(=O)=O)c21 [IIK-4]" assayed_system="EML4-ALK-BaF3 (Homo sapiens)" recorded_measurement="> 10000 nM"
compound="CSc1ccccc1Nc1nc(Nc2ccc(S(N)(=O)=O)cc2)nc2ccn(C)c12 [IIA-4]" assayed_system="EML4-ALK-BaF3 (Homo sapiens)" recorded_measurement="1300 nM"
compound="COC(=O)c1ccccc1Nc1nc(Nc2ccc(N3CCN(C)CC3)cc2OC)nc2ccn(C)c12 [IIG-1]" assayed_system="EML4-ALK-BaF3 (Homo sapiens)" recorded_measurement="2370 nM"

Now for the compound whose IC50 we want.
Provide value of IC50 for this record tested with EML4-ALK-BaF3 (Homo sapiens): COc1cc(C(=O)N2CCC(N3CCN(C)CC3)CC2)ccc1Nc1nc(NCc2ccccc2S(C)(=O)=O)c2c(ccn2C)n1 [IIK-6]
> 10000 nM
